Assay Target: Ba/F3 EGFR L858R/C797S mutants (Homo sapiens, UniProt P00533, C797S/L858R, cells depend on it)
Sequence (P00533 whole entry C797S/L858R): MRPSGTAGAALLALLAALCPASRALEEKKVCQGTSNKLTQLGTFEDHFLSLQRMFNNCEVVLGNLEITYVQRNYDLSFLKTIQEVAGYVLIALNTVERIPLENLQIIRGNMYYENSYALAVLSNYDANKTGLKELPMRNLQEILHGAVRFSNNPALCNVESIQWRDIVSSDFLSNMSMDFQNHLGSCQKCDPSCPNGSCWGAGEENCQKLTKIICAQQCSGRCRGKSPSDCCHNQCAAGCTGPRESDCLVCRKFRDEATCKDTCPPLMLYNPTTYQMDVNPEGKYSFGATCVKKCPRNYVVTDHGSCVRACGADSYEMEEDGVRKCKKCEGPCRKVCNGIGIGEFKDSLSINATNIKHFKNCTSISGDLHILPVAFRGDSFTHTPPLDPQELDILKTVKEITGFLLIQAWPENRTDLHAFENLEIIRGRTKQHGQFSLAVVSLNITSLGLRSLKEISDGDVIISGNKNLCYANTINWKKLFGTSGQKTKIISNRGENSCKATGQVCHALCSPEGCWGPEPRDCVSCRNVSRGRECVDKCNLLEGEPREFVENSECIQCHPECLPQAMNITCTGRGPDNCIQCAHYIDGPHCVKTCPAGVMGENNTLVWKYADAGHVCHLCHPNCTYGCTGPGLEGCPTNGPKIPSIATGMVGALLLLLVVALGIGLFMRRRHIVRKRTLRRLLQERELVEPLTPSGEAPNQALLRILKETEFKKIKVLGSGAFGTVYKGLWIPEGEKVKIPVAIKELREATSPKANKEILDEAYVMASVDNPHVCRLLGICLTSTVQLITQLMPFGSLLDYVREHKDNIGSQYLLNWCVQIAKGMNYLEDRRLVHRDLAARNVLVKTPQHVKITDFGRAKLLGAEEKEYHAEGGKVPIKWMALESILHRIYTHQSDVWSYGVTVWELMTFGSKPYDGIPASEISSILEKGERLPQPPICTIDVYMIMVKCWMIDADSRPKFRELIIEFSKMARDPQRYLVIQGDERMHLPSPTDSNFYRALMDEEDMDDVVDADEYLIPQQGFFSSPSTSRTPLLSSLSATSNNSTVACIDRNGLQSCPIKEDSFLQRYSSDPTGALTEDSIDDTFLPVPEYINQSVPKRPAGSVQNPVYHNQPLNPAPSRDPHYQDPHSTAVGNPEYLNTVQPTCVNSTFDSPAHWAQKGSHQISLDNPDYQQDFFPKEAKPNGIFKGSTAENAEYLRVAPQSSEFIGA
Test Details: CellTiter-Glo cell viability, Ba/F3 EGFR L858R/C797S cells
Format: cell-based, murine
Conditions Used: 72 hours, read-out: Ba/F3 EGFR mutant cell (IC50, nM) L/C
Protocol: In order to evaluate an inhibitory ability on wild-type Ba/F3 EGFR and Ba/F3 EGFR mutations in Ba/F3 cell lines by the compounds of Formula 1, the experiment was carried out as described below. The measurement of activities on Ba/F3 cells harboring wild-type EGFR and EGFR mutants by the compounds of the present invention were determined utilizing the CELLTITER-GLO™ system from Promega, as follows. […]
Outcome Measure: GI50 (nM)
Give bare numbers, in nM.

CCS(=O)(=O)Nc1c(Nc2nc(Nc3cc(C)c(N4CCC(N5CCN(C)CC5)CC4)cc3OC)ncc2Cl)cccc1OC: 51

Below are some compounds; for each one, tell me its GI50.
1. COc1cc(N2CCC(N3CCCC3)CC2)c(C)cc1Nc1ncc(Br)c(Nc2cccc(OC)c2NS(C)(=O)=O)n1
2. COc1cc(N2CCC(N3CCN(C)CC3)CC2)c(C)cc1Nc1ncc(Br)c(Nc2cccc(OC)c2NS(C)(=O)=O)n1
3. COc1cc(N2CCC(N3CCN(C)CC3)CC2)c(C)cc1Nc1ncc(Br)c(Nc2cccc(OC)c2N(C)S(C)(=O)=O)n1
4. COc1cc(N2CCN([C@@H]3CCN(C)C[C@@H]3F)CC2)ccc1Nc1ncc(Cl)c(Nc2ccc3nccnc3c2NS(C)(=O)=O)n1
5. CCCc1cc(Nc2ncc(Cl)c(Nc3ccc4nccnc4c3N(C)S(C)(=O)=O)n2)c(OC)cc1N1CCC(N2CCOCC2)CC1
6. CCc1cc(Nc2ncc(Cl)c(Nc3ccc4nccnc4c3NS(C)(=O)=O)n2)c(OC)cc1N1CCC(N2CCOCC2)CC1

A)
[55, 63, 61, 267, 210, 79]
